Tested on: U-937
ASSAY SUMMARY: Antiproliferative activity against human U937 cells after 72 hrs by WST-8 assay
Assay type: functional, cell-based
STUDY CONDITIONS: U-937, 72 h
ASSAY METRIC: IC50

CHEM SMILES: COc1ccc([C@@H]2CCc3c(OC)cc(OC)cc3O2)c(OC)c1
ASSAY METRIC: IC50
ASSAY VALUE: > 100 µM

CHEM SMILES: CC1(C)C=Cc2c(cc(O)c3c(=O)c(-c4ccc(O)cc4)coc23)O1
ASSAY METRIC: IC50
ASSAY VALUE: 13 µM

CHEM SMILES: COc1cc2c(cc1OC)[C@@H]1COc3cc(O)ccc3[C@@H]1O2
ASSAY METRIC: IC50
ASSAY VALUE: > 100 µM

CHEM SMILES: CC(C)(O)[C@@H](O)Cc1c(O)cc(O)c2c(=O)c(-c3ccc(O)cc3)coc12
ASSAY METRIC: IC50
ASSAY VALUE: > 100 µM

CHEM SMILES: O=c1c(-c2ccc(O)cc2)coc2cc(O)cc(O)c12
ASSAY METRIC: IC50
ASSAY VALUE: 48 µM

CHEM SMILES: COc1ccc2c(=O)c(-c3ccc(OC)c(OC)c3)coc2c1
ASSAY METRIC: IC50
ASSAY VALUE: > 100 µM

CHEM SMILES: COc1ccc2c(c1)OC[C@H]1c3cc4c(cc3O[C@@H]21)OCO4
ASSAY METRIC: IC50
ASSAY VALUE: > 100 µM

CHEM SMILES: COc1ccc2c(c1)OC[C@@]1(OC)c3cc4c(cc3O[C@@H]21)OCO4
ASSAY METRIC: IC50
ASSAY VALUE: > 100 µM

CHEM SMILES: O=c1c(-c2ccc(O)c(O)c2)coc2cc(O)cc(O)c12
ASSAY METRIC: IC50
ASSAY VALUE: > 100 µM
